Data provenance is ChEMBL document CHEMBL1201862.

# Tested on: Hs-578T
# protocol.summary: NCI tumour cell line growth inhibition, 48 h
Active and inactive are the calls of the source. No stated cut-off is given here; in the data, active = GI50 up to about 1.1 µM and inactive = higher.
recorded.metric: GI50

Reference set, count: 6
INSERT INTO results (item_smiles, target, result) VALUES
  ('CC(=O)Oc1ccn2nc(C)c(Br)c2c1Br', 'Hs-578T', '29.6 µM (inactive)'),
  ('CC1=CC(=O)N(n2c(Cc3ccc(Cl)cc3)n[nH]c2=O)C1=O', 'Hs-578T', '35.4 µM (inactive)'),
  ('O=[N+]([O-])c1ccccc1CSc1nc(O)c2nc[nH]c2n1', 'Hs-578T', '52.4 µM (inactive)'),
  ('CCN(CC)CCNc1n[n+]([O-])c2ccccc2[n+]1[O-]', 'Hs-578T', '28.6 µM (inactive)'),
  ('Cn1c(=O)[nH]n(-c2ccc3ccccc3c2)c1=O', 'Hs-578T', '> 100 µM (inactive)'),
  ('O=C(C/N=C(\CN(c1ccccc1)c1ccccc1)Oc1c(Cl)cc(Cl)cc1Cl)n1cnc2ccccc21', 'Hs-578T', '> 100 µM (inactive)');

Ask: Can you look up the measured GI50 of O=C(/C(=C/c1cccs1)c1ccccc1)c1ccccc1 for me?
Reply: > 100 µM (inactive)

---

# Tested on: TK-10
# protocol.summary: NCI tumour cell line growth inhibition, 48 h
The source made the active and inactive calls. Rule as the data show it: active = GI50 up to about 1.1 µM and inactive = higher.
recorded.metric: GI50

Answered cases to consult:
INSERT INTO assay_data (compound, result) VALUES
  ('CC[C@H](C)[C@H](NC(=O)[C@H](Cc1ccc(O)cc1)NCC(F)(F)F)C(=O)OC(C)(C)C', '8.09 µM (inactive)'),
  ('COc1ccc2c3c(n(Cc4ccccc4)c(=O)c2c1)-c1cc(OC)c(OC)cc1C3C (stereo not given)', '> 54.3 µM (inactive)'),
  ('Cc1ccc(O)c(-c2csc(NCN3CCN(CNc4nc(-c5cc(C)ccc5O)cs4)CC3)n2)c1', '> 100 µM (inactive)'),
  ('O=C(NCCCCCCNC(=O)c1cccc2ccccc12)c1cccc2ccccc12', '14.9 µM (inactive)'),
  ('ClCc1nc2ccccc2[nH]1', '> 100 µM (inactive)');

Ask: Need GI50 of [O-][n+]1cc(SCc2ccccc2)ncc1SCc1ccccc1 , thanks.
Reply: > 10 µM (inactive)

Ask: What do we get for O=c1c2cc(I)ccc2nc(SCc2nnco2)n1Cc1ccccc1 ?
Reply: 87.9 µM (inactive)

Ask: And the next one, CC1=CC(=O)N(n2c(Cc3ccc(Cl)cc3)n[nH]c2=O)C1=O ?
Reply: 98.9 µM (inactive)

Ask: Would you kindly repeat that for [N-]=[N+]=NC1CC(n2cc(COCC(F)(F)F)c(=O)[nH]c2=O)OC1CO (stereo not given) ?
Reply: > 100 µM (inactive)

Ask: Same thing, different compound: O=c1[nH]c(-c2ccccc2)nc2cc([N+](=O)[O-])c(/C(Cl)=C/c3ccccc3)cc12
Reply: 27.7 µM (inactive)

---

GI50 values by entry
# Test system: IGROV-1
# protocol.summary: NCI tumour cell line growth inhibition, 48 h
Calls of active or inactive are those of the source. Cut-off read from the data, not from the text of the source: active = GI50 up to about 1.1 µM and inactive = higher.

Recorded results for 5 compounds are shown here.
INSERT INTO results (item_smiles, target, result) VALUES
  ('COc1cc2nc(-c3cccs3)nc(Cl)c2cc1OC', 'IGROV-1', '> 100 µM (inactive)'),
  ('NS(=O)(=O)c1ccc(/N=N/c2ccc(O)c(O)c2)cc1', 'IGROV-1', '11.7 µM (inactive)'),
  ('Nc1cc2[nH]c(=O)c3cc(Cl)ccc3c2cc1Cl', 'IGROV-1', '4.07 µM (inactive)'),
  ('CNC(=O)c1nnn(C2CCCCC2)c1S', 'IGROV-1', '> 100 µM (inactive)'),
  ('COc1c(-c2nc3ccc(N4CCN(C)CC4)nc3[nH]2)cc(OC)c2[nH]c(CO)nc12', 'IGROV-1', '> 100 µM (inactive)');

Ask: What GI50 appears in the records for this compound with IGROV-1? COC(=O)c1cc(C)c(C)c2c1NC(=O)CNC2=O
Reply: > 100 µM (inactive)

---

# System: NCI-H23
# protocol.summary: NCI tumour cell line growth inhibition, 48 h
Activity calls are given as the source filed them. Cut-off read from the data, not from the text of the source: active = GI50 up to about 1.1 µM and inactive = higher.
recorded.metric: GI50

INSERT INTO measurements (compound, recorded_metric, result) VALUES
  ('COc1ccc(/C=C2\CCC(C)(CN(C)C)C2=O)cc1Br (stereo not given)', 'GI50', '28.8 µM (inactive)'),
  ('CC(C)(C)OC(=O)N(CCCCNC(=O)C(F)(F)F)CCCNC(=O)C(F)(F)F', 'GI50', '> 100 µM (inactive)'),
  ('CC(=O)C1=CSC2[C@H](NC(=O)Cc3ccccc3)C(=O)N2C1C(=O)OC(c1ccccc1)c1ccccc1 (stereo not given in full)', 'GI50', '51.6 µM (inactive)'),
  ('Cc1nc(N)c(N2CCN(C#N)CC2)c(O)n1', 'GI50', '> 100 µM (inactive)'),
  ('Cc1ccc(N2C[N+](c3ccccc3)=NC(c3ccccc3)=N2)cc1', 'GI50', '38.9 µM (inactive)'),
  ('S=c1[nH]c2ccc(Br)cc2c(=S)n1-c1ccccc1', 'GI50', '10.7 µM (inactive)');

Ask: Which GI50 value belongs to COc1ccc(/C(Cl)=C(\C=O)c2ccc(OC)cc2)cc1 ?
Reply: > 100 µM (inactive)

Ask: // repeat for CC1(C)O[C@@H](CBr)C[C@H](C[C@H]2C[C@@H](O)C[C@@H](CCOCc3ccccc3)O2)O1 and report
Reply: 16.3 µM (inactive)

Ask: Field entry: CC(Cc1ccc(O)c(O)c1)C(C)Cc1ccc(O)c(O)c1 (stereo not given) [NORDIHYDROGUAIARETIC ACID]
Reply: 20.1 µM (inactive)

Ask: Quick one: CCN1C(=O)C(=Cc2ccc(-c3ccccc3)cc2)C(=O)N(CC)C1=S
Reply: > 100 µM (inactive)

---

# Test system: CAKI-1
# protocol.summary: NCI tumour cell line growth inhibition, 48 h
Calls of active or inactive are those of the source. No stated cut-off is given here; in the data, active = GI50 up to about 1.1 µM and inactive = higher.
Pick one: active, inactive

Ask: Record request — test call for O=C(O)C(Cc1ccc(O)cn1)NC(=O)C(F)(F)F (centres undefined)
Reply: inactive

Ask: // query: C[C@]12CC[C@@H]3c4ccc(O)cc4CC[C@H]3[C@@H]1C/C(=C\c1ccc([N+](=O)[O-])cc1)C2=O
Reply: inactive

Ask: # repeat for COc1ccc(-c2cc(O)c3nc4ccccc4n3c2)cc1
Reply: inactive

Ask: Can you handle COC(=O)C(=O)C(CC(=O)Nc1ccc(C)cc1)C(=O)OC (centres undefined) next?
Reply: inactive

Ask: Same again, this time with Clc1cc2c(cc1Cl)CC(NCCN1CCCC1)CC2 (centres undefined)
Reply: inactive

Ask: // same read-out, input: COC(=O)[C@H](Cc1c[nH]c2ccccc12)NP(=O)(O)OCC1C=CC(n2cc(C)c(=O)[nH]c2=O)O1 (some centres undefined)
Reply: inactive

Ask: // same read-out, input: CC1(C)[C@@H]2C[C@H]1C(Cc1ccccc1C[C@H]1c3cc(-c4ccccn4)ncc3[C@H]3C[C@@H]1C3(C)C)c1cc(-c3ccccn3)ncc12 (some centres undefined)
Reply: active

Ask: Request: CC1(C)O[C@@H](CBr)C[C@H](C[C@H]2C[C@@H](O)C[C@@H](CCOCc3ccccc3)O2)O1
Reply: inactive

Ask: Another compound: CC[C@H](C)[C@H](NC(=O)[C@H](Cc1ccc(O)cc1)NCC(F)(F)F)C(=O)OC(C)(C)C
Reply: inactive

---

Below: a set of entries, each annotated with reported GI50.
# System: UO-31
# protocol.summary: NCI tumour cell line growth inhibition, 48 h
The source made the active and inactive calls. No stated cut-off is given here; in the data, active = GI50 up to about 1.1 µM and inactive = higher.

Reference set, count: 8
INSERT INTO measurements (compound, result) VALUES
  ('COc1cc(CNc2nc3cc(C(F)(F)F)ccc3nc2C(=O)O)cc(OC)c1OC', '18.6 µM (inactive)'),
  ('CSCC(CO)NC(=O)/C=C/c1c(C)[nH]c(=O)[nH]c1=O (stereo unspecified)', '557 µM (inactive)'),
  ('O=C1C=CC(=O)c2c1ccc1c3ccccc3n(Cc3ccccc3)c21', '20.2 µM (inactive)'),
  ('Cc1c(Cl)ccc2c1NC(=O)C2(O)C1Cc2ccccc2C1=O (stereo unspecified)', '92.9 µM (inactive)'),
  ('CCOC(=O)c1ccc(Nc2c3c(nc4ccccc24)CCCC3)cc1', '> 34.3 µM (inactive)'),
  ('CC(C)(C)OC(=O)N(CCCCNC(=O)C(F)(F)F)CCCNC(=O)C(F)(F)F', '> 100 µM (inactive)'),
  ('COc1ccc(C(OCC2OC(n3cc(C)c(=O)[nH]c3=O)CC2n2cc(Cn3cc(I)c(=O)[nH]c3=O)nn2)(c2ccccc2)c2ccccc2)cc1 (stereo unspecified)', '> 100 µM (inactive)'),
  ('Brc1ccc(/N=c2/nc3ccccn3n3nc(-c4ccccc4)cc23)cc1', '> 100 µM (inactive)');

Ask: Item under review: CC(C)C1=C(Cc2ccccc2)C(=O)O/C1=C\c1ccc(O)c(Cl)c1 . Reported GI50?
Reply: 14.4 µM (inactive)

Ask: Also need CCN(CC)c1cc2c3c(c1)CCCN3CCC2 , thanks.
Reply: > 10 µM (inactive)

Ask: Now try Clc1ccc(C(Cc2cccc(Cl)c2)c2c(Cl)nc(N3CCNCC3)nc2Cl)cc1 (stereo unspecified) .
Reply: 12.9 µM (inactive)

Ask: Item: O=c1c2ccccc2n2c(S)nnc2n1-c1ccccc1
Reply: > 100 µM (inactive)

Ask: Entry to check: O=C(O)c1cc2c(cc1CC(Cc1ccccc1)C(=O)O)CCC2 (stereo unspecified)
Reply: > 100 µM (inactive)

Ask: What do you get for CN1N=C(c2ccccc2)C(C(c2ccccc2[N+](=O)[O-])C2C(=O)N(C)N=C2c2ccccc2)C1=O (stereo unspecified) ?
Reply: > 100 µM (inactive)

Ask: // query: COC(=O)N1C2C(C[C@@]1(C)C(=O)OC)c1ccccc1N2S(=O)(=O)c1ccccc1 (stereo partly specified)
Reply: > 100 µM (inactive)

Ask: How about C=C(C)[C@@H]1CC=C(CO)CC1 ?
Reply: 410 µM (inactive)
